The entries below come with measured inhibition values attached.
Molecular target: Proto-oncogene tyrosine-protein kinase ROS (Homo sapiens);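 note: value given is the mean percent inhibition of ROS kinase activity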
Conditions: at 1 µM
Respond numerically; units are % and should not be typed.

- COc1cc2c(cc1Nc1nc(N3CCc4ccccc43)c3cc[nH]c3n1)N(C(=O)CN(C)C)CC2: 79.2
- Cc1ccc(C(=O)NC2CCCCC2)cc1-c1ccc(C(=O)NCC2CC2)cc1: 7.1
- Fc1cccc(COc2ccc(Nc3ncnc4cc(-c5ccc[nH]5)sc34)cc2Cl)c1: 12.1

Data request: Look up inhibition: COC(=O)Nc1nc2cc(Oc3cccc(NC(=O)Nc4cc(C(F)(F)F)ccc4F)c3)ccc2[nH]1
Data returned: 2.46

Data request: I'd like to know its inhibition. The molecule in question is c1cnn2ncc(-c3ccnc(Nc4ccc5c(c4)OCCO5)n3)c2c1
Data returned: 82.7

Data request: Can you look up the measured inhibition of NCc1ccc(-c2nc(-c3ccc(Cl)c(O)c3)c(-c3ccncc3)[nH]2)cc1 for me?
Data returned: 8.44

Data request: Request the reported inhibition associated with COc1ccc(-c2ccncc2)cc1C(N)=O
Data returned: 17.5

Data request: # get_value(readout='inhibition', item= CC1=C(C(=O)Nc2ccc3[nH]ncc3c2)C(c2ccc3ccccc3c2)CC(=O)N1 (stereo not given) )
Data returned: 14.5

Data request: Give the measured inhibition of NS(=O)(=O)c1ccc(N/N=C2\C(=O)Nc3ccc(C(=O)NCCc4c[nH]cn4)cc32)cc1 .
Data returned: 18.1

Data request: // lookup inhibition for Nc1nc(-c2ccc3c(c2)C(=Cc2cc(Br)c(O)c(Br)c2)C(=O)N3)cs1
Data returned: 7.73

Data request: Given O=C1Nc2ccc(C(=O)c3ccco3)cc2C1=Cc1cc(Cl)c(O)c(Cl)c1 , state its recorded inhibition.
Data returned: 11.2

Data request: GET /values?readout=inhibition&item= COc1ccc2cc(-c3c(-c4ccncc4)nc(-c4ccc([S+](C)[O-])cc4)n3C)ccc2c1 (stereo not given)
Data returned: 5.77

Data request: Look at this molecule and give its reported inhibition. COc1cccc(-n2ncc3c(N/N=C/c4cccc(F)c4)ncnc32)c1
Data returned: 10.6

Data request: Look at this molecule and give its reported inhibition. CCn1c(-c2nonc2N)nc2ccncc21
Data returned: 2.5

Data request: What does the record list as inhibition for CS(=O)(=O)Nc1ccc(N/C=C2\C(=O)Nc3ccccc32)cc1 ?
Data returned: 6.73

Data request: Given the entry CC(=O)Nc1cccc(C#Cc2cncnc2Nc2ccc(OCc3cccc(F)c3)c(Cl)c2)n1 , report its measured inhibition.
Data returned: -0.69

Data request: Consider the molecule shown here: Cc1nnc(-c2ccc(C)c(-c3ccc(C(=O)Nc4cccc(C#N)c4)cc3)c2)o1 What is its recorded inhibition?
Data returned: 1.44

Data request: Name the reported inhibition value associated with the molecule COc1ccc(-c2nn3ncccc3c2-c2ccnc(Nc3ccc(Cl)c(C(F)(F)F)c3)n2)cc1
Data returned: 2.35

Data request: Item under review: COC(=O)Nc1nc2cc(Oc3ccc(NC(=O)Nc4cccc(C(=O)O)c4)cc3)ccc2[nH]1 . Reported inhibition?
Data returned: 3.11

Data request: inhibition lookup needed for COc1cc2ncn(-c3cc(O[C@@H](C)c4ccccc4Cl)c(C(N)=O)s3)c2cc1OC , thanks.
Data returned: 29.1

====

Target: Serine/threonine-protein kinase PLK1 (Homo sapiens) (UniProt P53350)
Sequence (P53350 whole entry): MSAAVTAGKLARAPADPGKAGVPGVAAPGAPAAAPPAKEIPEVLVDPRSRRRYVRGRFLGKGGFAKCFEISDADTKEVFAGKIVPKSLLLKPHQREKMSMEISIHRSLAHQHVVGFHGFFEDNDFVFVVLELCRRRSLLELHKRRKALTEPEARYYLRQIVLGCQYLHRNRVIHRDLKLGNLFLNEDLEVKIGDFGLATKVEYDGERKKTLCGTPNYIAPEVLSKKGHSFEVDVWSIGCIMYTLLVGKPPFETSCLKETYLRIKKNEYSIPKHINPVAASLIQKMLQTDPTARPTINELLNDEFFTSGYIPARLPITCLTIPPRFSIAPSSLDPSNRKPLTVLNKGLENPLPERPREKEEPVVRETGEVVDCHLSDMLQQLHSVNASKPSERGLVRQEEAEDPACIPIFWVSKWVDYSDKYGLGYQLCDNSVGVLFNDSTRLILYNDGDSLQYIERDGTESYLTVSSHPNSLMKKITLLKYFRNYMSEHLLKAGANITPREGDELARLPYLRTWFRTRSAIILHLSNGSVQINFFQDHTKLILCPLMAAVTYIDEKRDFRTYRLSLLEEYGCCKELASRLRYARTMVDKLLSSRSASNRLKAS
Conditions: at 0.1 µM
READOUT NAME: inhibition (%)
Quick note: give the figure in %, leave out the unit.

Answered cases to consult:
• CS(=O)(=O)CCNCc1ccc(-c2ccc3ncnc(Nc4ccc(OCc5cccc(F)c5)c(C(F)(F)F)c4)c3c2)o1 = 3.95
• COc1cc2ncn(-c3cc(OCc4ccccc4Cl)c(C(N)=O)s3)c2cc1OC = 93.8
• Nc1nc(-c2ccccn2)c(-c2ccc3ncccc3n2)s1 = 2.47

Data request: Param readout = inhibition; param system = Serine/threonine-protein kinase PLK1 (Homo sapiens) (UniProt P53350); param query = COc1ccc(-c2ccncc2)cc1C(N)=O ; response: value
Data returned: 5.64

Data request: Report inhibition for CCc1cccc(NC(=O)Nc2ccc(Oc3ccc4nc(NC(=O)OC)[nH]c4c3)cc2)c1 tested on Serine/threonine-protein kinase PLK1 (Homo sapiens) (UniProt P53350).
Data returned: 2.03

Data request: Recorded inhibition for COc1ccc2cc(-c3c(-c4ccncc4)nc(-c4ccc([S+](C)[O-])cc4)n3C)ccc2c1 (stereo not given) with Serine/threonine-protein kinase PLK1 (Homo sapiens) (UniProt P53350), please?
Data returned: 1.98

Data request: API: value(readout=inhibition, system=Serine/threonine-protein kinase PLK1 (Homo sapiens) (UniProt P53350)) for record COc1cc2c(cc1Nc1nc(N3CCc4ccccc43)c3cc[nH]c3n1)N(C(=O)CN(C)C)CC2
Data returned: 5.82

Data request: Record lookup: for Serine/threonine-protein kinase PLK1 (Homo sapiens) (UniProt P53350), what inhibition belongs to COc1cc2ncn(-c3cc(OCc4ccccc4C(F)(F)F)c(C(N)=O)s3)c2cc1OC ?
Data returned: 93.4

Data request: Provide value of inhibition for this record tested with Serine/threonine-protein kinase PLK1 (Homo sapiens) (UniProt P53350): CCn1c(-c2nonc2N)nc2c(N3CCCC3)nccc21
Data returned: 1.87

Data request: Value wanted: inhibition (Serine/threonine-protein kinase PLK1 (Homo sapiens) (UniProt P53350)) of entry COc1ccc(-c2coc3ncnc(N)c23)cc1
Data returned: 3.82

Data request: Item: COC(=O)Nc1nc2cc(Oc3ccc(NC(=O)Nc4cccc(C(=O)O)c4)cc3)ccc2[nH]1 Test system: Serine/threonine-protein kinase PLK1 (Homo sapiens) (UniProt P53350) Read-out: inhibition Value: ?
Data returned: 0.16

Data request: Serine/threonine-protein kinase PLK1 (Homo sapiens) (UniProt P53350) / inhibition / CCn1c(-c2nonc2N)nc2cnc(Oc3cccc(NC(=O)c4ccc(OCCN5CCOCC5)cc4)c3)cc21 : value?
Data returned: 4.54

Data request: Recall the recorded inhibition for [O-][S+]1CCN(Cc2ccc(-c3ccc4ncnc(Nc5ccc(OCc6ccccc6)c(F)c5)c4c3)o2)CC1 with Serine/threonine-protein kinase PLK1 (Homo sapiens) (UniProt P53350) and state it.
Data returned: 2.17

Data request: Hi! What's the reported inhibition for O=C1NC(=O)C(c2ccc(Cl)cc2)=C1Nc1ccc(Cl)c(C(=O)O)c1 on Serine/threonine-protein kinase PLK1 (Homo sapiens) (UniProt P53350)?
Data returned: -1.32

Data request: Field: inhibition (Serine/threonine-protein kinase PLK1 (Homo sapiens) (UniProt P53350)). Entry: N#Cc1c(NC(=O)c2cccc3ccccc23)sc2c1CCCC2
Data returned: 3.77

Data request: Find the measured inhibition: item CC1=C(C(=O)Nc2ccc3[nH]ncc3c2)C(c2ccc3ccccc3c2)CC(=O)N1 (stereo not given) , target or system Serine/threonine-protein kinase PLK1 (Homo sapiens) (UniProt P53350).
Data returned: 2.98

Data request: Could you share what inhibition was measured for NC(=O)c1cccc(Nc2nccc(Nc3cccc4[nH]ncc34)n2)c1 , tested on Serine/threonine-protein kinase PLK1 (Homo sapiens) (UniProt P53350)?
Data returned: -1.69

Data request: Any idea what inhibition came out for O=C1NC(=O)C(N2CCc3ccccc32)=C1c1ccc(Cl)cc1 on Serine/threonine-protein kinase PLK1 (Homo sapiens) (UniProt P53350)?
Data returned: 3.88

Data request: Please provide the recorded inhibition for CC(=O)Nc1cccc(C#Cc2cncnc2Nc2ccc(OCc3cccc(F)c3)c(Cl)c2)n1 , tested on Serine/threonine-protein kinase PLK1 (Homo sapiens) (UniProt P53350).
Data returned: -3.77

Data request: Form field - read-out: inhibition; system: Serine/threonine-protein kinase PLK1 (Homo sapiens) (UniProt P53350); submitted item: Nc1ncnc2occ(-c3ccc(NC(=O)Nc4cc(C(F)(F)F)cc(C(F)(F)F)c4)cc3)c12;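 note: reported values are mean PLK1 inhibition, measured as part of the GSK PKIS profiling set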
Data returned: 2.75
